Biological target: GST-Rok-C97-191 (Bacillus subtilis subsp. subtilis str. …, UniProt O34857 97-191)
Sequence: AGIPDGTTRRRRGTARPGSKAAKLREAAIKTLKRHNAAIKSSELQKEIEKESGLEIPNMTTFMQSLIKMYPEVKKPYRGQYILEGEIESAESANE
Assay: protein binding microarray; high values mean tight binding
Conditions: protein: recombinant; tags: GST (pTH5325, pDEST15-Magic modified); dsDNA, one strand shown
Over roughly 33,000 sequences, “e-score” has its median near -0.038; the highest 2% begin near 0.33. The sample as a whole holds a higher share of the highest values than the screen did.
Give measured binding signal for each item. Keep answers brief.

(Q) Consider the sequence AAGCATGG and give its recorded binding signal.
(A) -0.183 E-score

(Q) Consider the sequence ACTTTCTA and give its recorded binding signal.
(A) 0.386 E-score

(Q) Consider the sequence TCAGCCGA and give its recorded binding signal.
(A) -0.0187 E-score

(Q) Consider the sequence TCTATGCA and give its recorded binding signal.
(A) 0.172 E-score

(Q) Consider the sequence CAGGCGCC and give its recorded binding signal.
(A) -0.149 E-score

(Q) Consider the sequence TTACTGAA and give its recorded binding signal.
(A) 0.144 E-score

(Q) Consider the sequence AGTAGTTG and give its recorded binding signal.
(A) 0.393 E-score

(Q) Consider the sequence ACTAATTC and give its recorded binding signal.
(A) 0.373 E-score

(Q) Consider the sequence CGGCCGAG and give its recorded binding signal.
(A) -0.169 E-score

(Q) Consider the sequence AATTTCTC and give its recorded binding signal.
(A) 0.198 E-score

(Q) Consider the sequence ACGCTCAC and give its recorded binding signal.
(A) -0.0887 E-score

(Q) Consider the sequence AGAGAAGG and give its recorded binding signal.
(A) -0.195 E-score

(Q) Consider the sequence CCTAATTA and give its recorded binding signal.
(A) 0.28 E-score

(Q) Consider the sequence CACGAAGC and give its recorded binding signal.
(A) -0.104 E-score

(Q) Consider the sequence CAGTGTAC and give its recorded binding signal.
(A) 0.0867 E-score

(Q) Consider the sequence ATGCTACC and give its recorded binding signal.
(A) 0.00967 E-score

(Q) Consider the sequence ATTTTCTA and give its recorded binding signal.
(A) 0.379 E-score

(Q) Consider the sequence CACTGACG and give its recorded binding signal.
(A) 0.009 E-score

(Q) Consider the sequence ACTAATTA and give its recorded binding signal.
(A) 0.444 E-score

(Q) Consider the sequence ATTTTCTC and give its recorded binding signal.
(A) 0.255 E-score

(Q) Consider the sequence TATTCCCA and give its recorded binding signal.
(A) 0.217 E-score

(Q) Consider the sequence CAGTCTAA and give its recorded binding signal.
(A) -0.037 E-score

(Q) Consider the sequence AATTTCTA and give its recorded binding signal.
(A) 0.355 E-score

(Q) Consider the sequence TAGATAAA and give its recorded binding signal.
(A) 0.292 E-score

(Q) Consider the sequence AATAGATT and give its recorded binding signal.
(A) 0.352 E-score

(Q) Consider the sequence ATTTTCTG and give its recorded binding signal.
(A) -0.0553 E-score

(Q) Consider the sequence CAAAATAA and give its recorded binding signal.
(A) 0.0411 E-score

(Q) Consider the sequence CAGACGCA and give its recorded binding signal.
(A) -0.191 E-score

(Q) Consider the sequence ATCTACAC and give its recorded binding signal.
(A) 0.273 E-score

(Q) Consider the sequence AGCTACAC and give its recorded binding signal.
(A) 0.169 E-score

(Q) Consider the sequence GGTAGTTA and give its recorded binding signal.
(A) 0.4 E-score

(Q) Consider the sequence GATTTCAA and give its recorded binding signal.
(A) 0.0221 E-score

(Q) Consider the sequence AATCTGTG and give its recorded binding signal.
(A) -0.0756 E-score

(Q) Consider the sequence AGCAATTA and give its recorded binding signal.
(A) 0.303 E-score

(Q) Consider the sequence GCGGTTCC and give its recorded binding signal.
(A) -0.143 E-score

(Q) Consider the sequence AAGTCTAG and give its recorded binding signal.
(A) 0.0844 E-score

(Q) Consider the sequence CAAAATAG and give its recorded binding signal.
(A) 0.333 E-score

(Q) Consider the sequence GATTTCTA and give its recorded binding signal.
(A) 0.357 E-score

(Q) Consider the sequence AATAGATG and give its recorded binding signal.
(A) 0.267 E-score

(Q) Consider the sequence ACCTTGCT and give its recorded binding signal.
(A) -0.156 E-score

(Q) Consider the sequence GATAATAC and give its recorded binding signal.
(A) 0.21 E-score

(Q) Consider the sequence AGCAATTC and give its recorded binding signal.
(A) 0.115 E-score

(Q) Consider the sequence CATTTCTA and give its recorded binding signal.
(A) 0.306 E-score

(Q) Consider the sequence ACTTTCTC and give its recorded binding signal.
(A) 0.0481 E-score

(Q) Consider the sequence AGTCCATC and give its recorded binding signal.
(A) -0.159 E-score

(Q) Consider the sequence CGCAGAAG and give its recorded binding signal.
(A) -0.171 E-score

---

Biological target: GST-Rok-C97-191 (Bacillus subtilis subsp. subtilis str. …, UniProt O34857 97-191)
Sequence: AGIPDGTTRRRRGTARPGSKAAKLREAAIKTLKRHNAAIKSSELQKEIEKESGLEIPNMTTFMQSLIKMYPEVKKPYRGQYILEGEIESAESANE
Assay: protein binding microarray; high values mean tight binding
Settings: protein: recombinant; tags: GST (pTH5325, pDEST15-Magic modified); dsDNA, one strand shown
In all, about 33,000 sequences were measured (“e-score”: median about -0.038, highest 2% from about 0.33 on). Shown is part of a subset that was picked to be rich in the highest values.
Classification field: YES = binding signal at or over -0.06 E-score; NO = binding signal under -0.06 E-score.

(Q) Reported binding signal reaches at least -0.06 E-score for ATTACGCC ?
(A) YES

(Q) Reported binding signal reaches at least -0.06 E-score for AACCATAA ?
(A) YES

(Q) Reported binding signal reaches at least -0.06 E-score for CAAAGTAG ?
(A) YES

(Q) Reported binding signal reaches at least -0.06 E-score for CATAGTTC ?
(A) YES

(Q) Reported binding signal reaches at least -0.06 E-score for TGCGGCAA ?
(A) YES

(Q) Reported binding signal reaches at least -0.06 E-score for ACTAGTTG ?
(A) YES

(Q) Reported binding signal reaches at least -0.06 E-score for CCCATATC ?
(A) NO

(Q) Reported binding signal reaches at least -0.06 E-score for TACCATAA ?
(A) YES

(Q) Reported binding signal reaches at least -0.06 E-score for CTGAGTCA ?
(A) NO

(Q) Reported binding signal reaches at least -0.06 E-score for AAAAGTAC ?
(A) YES

(Q) Reported binding signal reaches at least -0.06 E-score for CGAGCCTA ?
(A) NO

(Q) Reported binding signal reaches at least -0.06 E-score for AAAAGTAG ?
(A) YES

(Q) Reported binding signal reaches at least -0.06 E-score for GGTAGTGA ?
(A) YES

(Q) Reported binding signal reaches at least -0.06 E-score for GCCCTGTA ?
(A) NO

(Q) Reported binding signal reaches at least -0.06 E-score for AATAGTTC ?
(A) YES

(Q) Reported binding signal reaches at least -0.06 E-score for ATTAGTTG ?
(A) YES

(Q) Reported binding signal reaches at least -0.06 E-score for ATCCAGCG ?
(A) NO

(Q) Reported binding signal reaches at least -0.06 E-score for AGAGCCAA ?
(A) NO

(Q) Reported binding signal reaches at least -0.06 E-score for AAGGGTGC ?
(A) NO

(Q) Reported binding signal reaches at least -0.06 E-score for CATAGTAG ?
(A) YES

(Q) Reported binding signal reaches at least -0.06 E-score for ACCTATTC ?
(A) YES

(Q) Reported binding signal reaches at least -0.06 E-score for GACCATAA ?
(A) YES

---

Target: GST-Rok-C97-191 (Bacillus subtilis subsp. subtilis str. …, UniProt O34857 97-191)
Sequence: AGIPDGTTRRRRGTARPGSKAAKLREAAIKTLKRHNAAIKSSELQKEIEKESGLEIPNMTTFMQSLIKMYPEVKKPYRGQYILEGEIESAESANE
Test: protein binding microarray; Rok is a gene silencer of Bacillus subtilis; high values mean tight binding
Conditions: protein: recombinant; tags: GST (pTH5325, pDEST15-Magic modified); dsDNA, one strand shown
The full ranking holds about 33,000 sequences; the median of “e-score” is about -0.038, and the highest 2% start at about 0.33. The entries come from a sample that favours the highest values as a whole.
Classification field: YES = binding signal at or over 0.07 E-score; NO = binding signal under 0.07 E-score.

(Q) Reported binding signal reaches at least 0.07 E-score for ATAAAATG ?
(A) YES

(Q) Reported binding signal reaches at least 0.07 E-score for AACTTATC ?
(A) YES

(Q) Reported binding signal reaches at least 0.07 E-score for TAAAAATA ?
(A) YES

(Q) Reported binding signal reaches at least 0.07 E-score for CTAAAATA ?
(A) YES

(Q) Reported binding signal reaches at least 0.07 E-score for CACAAGTA ?
(A) YES

(Q) Reported binding signal reaches at least 0.07 E-score for AAGTAGTA ?
(A) YES

(Q) Reported binding signal reaches at least 0.07 E-score for ACCGTAGT ?
(A) YES

(Q) Reported binding signal reaches at least 0.07 E-score for CTGAAGCA ?
(A) NO

(Q) Reported binding signal reaches at least 0.07 E-score for ACCATTGG ?
(A) NO

(Q) Reported binding signal reaches at least 0.07 E-score for ATGTAGTC ?
(A) YES

(Q) Reported binding signal reaches at least 0.07 E-score for ATAATTGC ?
(A) YES

(Q) Reported binding signal reaches at least 0.07 E-score for GTTCAGCA ?
(A) NO

(Q) Reported binding signal reaches at least 0.07 E-score for AACAAGTT ?
(A) NO

(Q) Reported binding signal reaches at least 0.07 E-score for AAAAAATA ?
(A) YES

(Q) Reported binding signal reaches at least 0.07 E-score for CAGTAGTC ?
(A) NO

(Q) Reported binding signal reaches at least 0.07 E-score for ATGGTATC ?
(A) NO

(Q) Reported binding signal reaches at least 0.07 E-score for AGAATTAC ?
(A) YES

(Q) Reported binding signal reaches at least 0.07 E-score for AGTCGATC ?
(A) NO

(Q) Reported binding signal reaches at least 0.07 E-score for AACAAATA ?
(A) YES

(Q) Reported binding signal reaches at least 0.07 E-score for ATGTACCC ?
(A) YES

(Q) Reported binding signal reaches at least 0.07 E-score for CTAATTAG ?
(A) YES

(Q) Reported binding signal reaches at least 0.07 E-score for GCAATTAC ?
(A) YES

(Q) Reported binding signal reaches at least 0.07 E-score for CTGGTAGC ?
(A) NO

(Q) Reported binding signal reaches at least 0.07 E-score for AACTTCTA ?
(A) YES

(Q) Reported binding signal reaches at least 0.07 E-score for AAATGGTT ?
(A) YES

(Q) Reported binding signal reaches at least 0.07 E-score for ATAAAATA ?
(A) YES

(Q) Reported binding signal reaches at least 0.07 E-score for ATGGTAGG ?
(A) YES

(Q) Reported binding signal reaches at least 0.07 E-score for GAATAAAC ?
(A) NO

(Q) Reported binding signal reaches at least 0.07 E-score for ATAATTAC ?
(A) YES

(Q) Reported binding signal reaches at least 0.07 E-score for TACGCAGA ?
(A) NO

(Q) Reported binding signal reaches at least 0.07 E-score for ATGTAGTA ?
(A) YES

(Q) Reported binding signal reaches at least 0.07 E-score for ATGGTATA ?
(A) YES

(Q) Reported binding signal reaches at least 0.07 E-score for CAATGTTA ?
(A) YES

(Q) Reported binding signal reaches at least 0.07 E-score for CCAATTAG ?
(A) NO

(Q) Reported binding signal reaches at least 0.07 E-score for AACTTATA ?
(A) YES

(Q) Reported binding signal reaches at least 0.07 E-score for GATAAGCA ?
(A) YES

(Q) Reported binding signal reaches at least 0.07 E-score for CGACTGAA ?
(A) NO

(Q) Reported binding signal reaches at least 0.07 E-score for ATGGTAGC ?
(A) YES

(Q) Reported binding signal reaches at least 0.07 E-score for ACGACCTA ?
(A) NO

(Q) Reported binding signal reaches at least 0.07 E-score for CAGTAGTA ?
(A) YES

(Q) Reported binding signal reaches at least 0.07 E-score for CTTATTCC ?
(A) NO

(Q) Reported binding signal reaches at least 0.07 E-score for GTGGTAGA ?
(A) YES

(Q) Reported binding signal reaches at least 0.07 E-score for AGCTTCTG ?
(A) NO

(Q) Reported binding signal reaches at least 0.07 E-score for AAGTAGTG ?
(A) YES

(Q) Reported binding signal reaches at least 0.07 E-score for TACTTCTA ?
(A) YES

Origin of the recorded values: paper PMC6212790
